- system.name: T1, SARS-CoV-2 RBD-mFc (SARS-CoV-2, UniProt P0DTC2 319-541)
- T1 construct: range 319-541
- measurement.description: flow cytometry competition: RBD-mFc on HEK293E/ACE2 cells
property: IC50
Please state the value followed by its unit.

SA4040 (antibody, V domains shown) VH: EVQLVQSGAEVKKPGASVKVSCKASGYTFTGYYMHWARQAPGQGLEWMGWINPNSGGTNYAQKFQGRVTMTRDTSITTAYMELSRLTSDDTAVYYCARDQAFSMVRGVTDYWGQGTLVTVSS VL: QSALTQPPSASGSPGQSVIISCTGSSSDVGGYNYVAWYQQYPGAAPKLIISEVTKRPSGVPDRFSGSKSGNTASLTISGLQAEDEANYYCSSYAGDNTWIFGGGTKLTVL :: 1.59 nM

Next binder, please.
In: Could you tell me which IC50 is on file for SA4043 (antibody, V domains shown) VH: QVQLQESGGGLVQPGGSLRLSCAASVITVSSNYMSWVRQAPGKGLEWVSVIYPGGSTYYADSVKGRFTISRDKSKNTLYLQMNSLRAEDTAVYYCARDLDIVGGMDVWGQGTTVTVSS VL: DIQMTQSPSTLSASVGDRVTITCRASQSISRWLAWYQQKPGQAPKLLIYAASTLQSGVPSRFSGSGSGTEFTLTISSLQPDDFATYYCQQYDSYPRTFGQGTKVDIK ?
Out: 1.69 nM
